tested on: Escherichia coli; type: cell-based
Numbered stars: 1 amine (or outer) side, 2 acyl side, 3 side chain; on linkers, the order of the positions; unused ones are H or OH. Bridge positions count the residues as written; N and C are the ends. Square brackets hold non-standard residues; d marks the D form. Peptide text beside a SMILES is read from it. * marks the point of attachment. ξ: configuration not given here. X5 = CCCCCCCCc1ccc(C[C@@H](N[*:1])C(=O)[*:2])cc1; dPhe(4-CN) = N#Cc1ccc(C[C@@H](N)C(=O)O)cc1; Octanoyl(6-Me) = CCC(C)CCCCC(=O)*; X23 = NCC[C@H](OCc1ccccc1)C(=O)*; dCha = N[C@H](CC1CCCCC1)C(=O)O; Thr(3ξ) = CC(O)[C@H](N)C(=O)O; X4 = CC(C)CC1CNCC(C(=O)*)C1; X21 = NCC(CC1CCCCC1)C(=O)*; X22 = NC(CCC(=O)*)C1CCCCC1; Dab = NCC[C@H](N)C(=O)O; Dap = NC[C@H](N)C(=O)O; X2 = CC(C)CC(CN)C(=O)*
OUTCOME MEASURE: MIC E. coli 058 (µg/mL)
Enter your answer as a number in µg/mL; do not include the unit.

* CC(C)C[C@@H]1NC(=O)[C@@H](CC2CCCCC2)NC(=O)[C@H](CCN)NC(=O)[C@@H](NC(=O)[C@H](CN)NC(=O)[C@@H](NC(=O)C(CN)CC2CCCCC2)C(C)O)CCNC(=O)[C@H]([C@@H](C)O)NC(=O)[C@H](CCN)NC(=O)[C@H](CCN)NC1=O (some centres unmarked) [Example 31] (X21-[Thr(3ξ)][Dap][Dab][Dab][dCha]L[Dab][Dab]T; lactam 3-C) | 2
* CC(C)C[C@@H]1NC(=O)[C@@H](CC2CCCCC2)NC(=O)[C@H](CCN)NC(=O)[C@@H](NC(=O)[C@H](CCN)NC(=O)[C@@H](NC(=O)C(CCN)c2ccccc2)[C@@H](C)O)CCNC(=O)[C@H]([C@@H](C)O)NC(=O)[C@H](CCN)NC(=O)[C@H](CCN)NC1=O (single isomer, unassigned; isomer 2) [Example 64] | 8
* CC(C)C[C@@H]1NC(=O)[C@@H](CC2CCCCC2)NC(=O)[C@H](CCN)NC(=O)[C@@H](NC(=O)[C@H](CN)NC(=O)[C@@H](NC(=O)[C@H](CCN)OCc2ccccc2)C(C)O)CCNC(=O)[C@H]([C@@H](C)O)NC(=O)[C@H](CCN)NC(=O)[C@H](CCN)NC1=O (some centres unmarked) [Example 48] (X23-[Thr(3ξ)][Dap][Dab][Dab][dCha]L[Dab][Dab]T; lactam 3-C) | 4

Query string: Request the reported MIC E. coli 058 associated with CCCCCCCCc1ccc(C[C@H]2NC(=O)[C@H](CCN)NC(=O)[C@@H](NC(=O)[C@H](CN)NC(=O)[C@@H](NC(=O)C3CNCC(CC(C)C)C3)C(C)O)CCNC(=O)[C@H]([C@@H](C)O)NC(=O)[C@H](CCN)NC(=O)[C@H](CCN)NC(=O)[C@H](CC(C)C)NC2=O)cc1 (some centres unmarked) [Example 23] (X4-[Thr(3ξ)][Dap][Dab][Dab][X5]L[Dab][Dab]T; lactam 3-C)
Result string: 2

Query string: Request the reported MIC E. coli 058 associated with CC(C)CC(CN)C(=O)N[C@H](C(=O)N[C@@H](CCN)C(=O)N[C@H]1CCNC(=O)[C@H]([C@@H](C)O)NC(=O)[C@H](CCN)NC(=O)[C@H](CCN)NC(=O)[C@H](CC(C)C)NC(=O)[C@@H](CC2CCCCC2)NC(=O)[C@H](CCN)NC1=O)C(C)O (some centres unmarked) [Example 21] (X2-[Thr(3ξ)][Dab][Dab][Dab][dCha]L[Dab][Dab]T; lactam 3-C)
Result string: 8

Query string: Request the reported MIC E. coli 058 associated with CCCCCCCCC1CNCC1C(=O)N[C@H](C(=O)N[C@@H](CCN)C(=O)N[C@H]1CCNC(=O)[C@H]([C@@H](C)O)NC(=O)[C@H](CCN)NC(=O)[C@H](CCN)NC(=O)[C@H](CC(C)C)NC(=O)[C@@H](Cc2ccc(-c3ccccc3)cc2)NC(=O)[C@H](CCN)NC1=O)C(C)O (single isomer, unassigned; isomer 2) [Example 8]
Result string: 2

Query string: Request the reported MIC E. coli 058 associated with CC(C)C[C@@H]1NC(=O)[C@@H](CC2CCCCC2)NC(=O)[C@H](CCN)NC(=O)[C@@H](NC(=O)[C@H](CN)NC(=O)[C@@H](NC(=O)CCC(N)C2CCCCC2)[C@@H](C)O)CCNC(=O)[C@H]([C@@H](C)O)NC(=O)[C@H](CCN)NC(=O)[C@H](CCN)NC1=O (some centres unmarked) [Example 63] (X22-T[Dap][Dab][Dab][dCha]L[Dab][Dab]T; lactam 3-C)
Result string: 4

Query string: Request the reported MIC E. coli 058 associated with CC(C)CCC(CCN)C(=O)N[C@H](C(=O)N[C@@H](CN)C(=O)N[C@H]1CCNC(=O)[C@H]([C@@H](C)O)NC(=O)[C@H](CCN)NC(=O)[C@H](CCN)NC(=O)[C@H](CC(C)C)NC(=O)[C@@H](CC2CCCCC2)NC(=O)[C@H](CCN)NC1=O)[C@@H](C)O (single isomer, unassigned; isomer 2) [Example 80]
Result string: 2

Query string: Request the reported MIC E. coli 058 associated with CCC(C)CCCCC(=O)N[C@@H](CCN)C(=O)N[C@H](C(=O)N[C@@H](CCN)C(=O)N[C@H]1CCNC(=O)[C@H]([C@@H](C)O)NC(=O)[C@H](CCN)NC(=O)[C@H](CCN)NC(=O)[C@H](CC(C)C)NC(=O)[C@@H](Cc2ccc(C#N)cc2)NC(=O)[C@H](CCN)NC1=O)C(C)O (stereo partly drawn) [Example 24, Polymyxin B[D-(4-cyano)Phe]-6] ({Octanoyl(6-Me)}-[Dab][Thr(3ξ)][Dab][Dab][Dab][dPhe(4-CN)]L[Dab][Dab]T; lactam 4-C)
Result string: 4

Query string: Request the reported MIC E. coli 058 associated with CC(C)C[C@@H]1NC(=O)[C@@H](CC2CCCCC2)NC(=O)[C@H](CCN)NC(=O)[C@@H](NC(=O)[C@H](CN)NC(=O)[C@@H](NC(=O)C(CCN)Cc2cccc(F)c2)C(C)O)CCNC(=O)[C@H]([C@@H](C)O)NC(=O)[C@H](CCN)NC(=O)[C@H](CCN)NC1=O (single isomer, unassigned; isomer 2) [Example 45]
Result string: 4

====

tested on: Klebsiella pneumoniae; assay type: cell-based
Numbered stars: 1 amine (or outer) side, 2 acyl side, 3 side chain; on linkers, the order of the positions; unused ones are H or OH. Bridge positions count the residues as written; N and C are the ends. Square brackets hold non-standard residues; d marks the D form. Peptide text beside a SMILES is read from it. * marks the point of attachment. ξ: configuration not given here. X11 = O=C([C@@H](Cc1ccc(-c2ccncc2)cc1)N[*:1])[*:2]; Octanoyl(6-Me) = CCC(C)CCCCC(=O)*; dCha = N[C@H](CC1CCCCC1)C(=O)O; Thr(3ξ) = CC(O)[C@H](N)C(=O)O; X8 = NCC(C(=O)*)C1CCCCC1; Dab = NCC[C@H](N)C(=O)O; X6 = CCCCCCC(CCN)C(=O)*; Dap = NC[C@H](N)C(=O)O
OUTCOME MEASURE: MIC K. pneumoniae ATCC 4352 (µg/mL)
Enter your answer as a number in µg/mL; do not include the unit.

* CC(C)CC(CN)C(=O)N[C@H](C(=O)N[C@@H](CN)C(=O)N[C@H]1CCNC(=O)[C@H]([C@@H](C)O)NC(=O)[C@H](CCN)NC(=O)[C@H](CCN)NC(=O)[C@H](CC(C)C)NC(=O)[C@@H](Cc2ccc(-c3ccccc3)cc2)NC(=O)[C@H](CCN)NC1=O)C(C)O (single isomer, unassigned; isomer 2) [Example 16] | 0.5

Query string: Request the reported MIC K. pneumoniae ATCC 4352 associated with CCC(C)CCCCC(=O)N[C@@H](CCN)C(=O)N[C@H](C(=O)N[C@@H](CCN)C(=O)N[C@H]1CCNC(=O)[C@H]([C@@H](C)O)NC(=O)[C@H](CCN)NC(=O)[C@H](CCN)NC(=O)[C@H](CC(C)C)NC(=O)[C@@H](Cc2ccc(-c3ccncc3)cc2)NC(=O)[C@H](CCN)NC1=O)C(C)O (stereo partly drawn) [Example 1] ({Octanoyl(6-Me)}-[Dab][Thr(3ξ)][Dab][Dab][Dab][X11]L[Dab][Dab]T; lactam 4-C)
Result string: 1

Query string: Request the reported MIC K. pneumoniae ATCC 4352 associated with CCCCCCC(CCN)C(=O)N[C@H](C(=O)N[C@@H](CCN)C(=O)N[C@H]1CCNC(=O)[C@H]([C@@H](C)O)NC(=O)[C@H](CCN)NC(=O)[C@H](CCN)NC(=O)[C@H](CC(C)C)NC(=O)[C@@H](Cc2ccccc2)NC(=O)[C@H](CCN)NC1=O)C(C)O (stereo partly drawn) [Example C5, reference compound] (X6-[Thr(3ξ)][Dab][Dab][Dab][dF]L[Dab][Dab]T; lactam 3-C)
Result string: 0.06

Query string: Request the reported MIC K. pneumoniae ATCC 4352 associated with CC(C)C[C@@H]1NC(=O)[C@@H](CC2CCCCC2)NC(=O)[C@H](CCN)NC(=O)[C@@H](NC(=O)[C@H](CN)NC(=O)[C@@H](NC(=O)C(CN)C2CCCCC2)C(C)O)CCNC(=O)[C@H]([C@@H](C)O)NC(=O)[C@H](CCN)NC(=O)[C@H](CCN)NC1=O (stereo partly drawn) [Example 28] (X8-[Thr(3ξ)][Dap][Dab][Dab][dCha]L[Dab][Dab]T; lactam 3-C)
Result string: 0.125

Query string: Request the reported MIC K. pneumoniae ATCC 4352 associated with CCCCCCCCC1CNCC1C(=O)N[C@H](C(=O)N[C@@H](CCN)C(=O)N[C@H]1CCNC(=O)[C@H]([C@@H](C)O)NC(=O)[C@H](CCN)NC(=O)[C@H](CCN)NC(=O)[C@H](CC(C)C)NC(=O)[C@@H](Cc2ccc(-c3ccccc3)cc2)NC(=O)[C@H](CCN)NC1=O)C(C)O (single isomer, unassigned; isomer 1) [Example 7]
Result string: 1

Query string: Request the reported MIC K. pneumoniae ATCC 4352 associated with CC(C)C[C@@H]1NC(=O)[C@@H](CC2CCCCC2)NC(=O)[C@H](CCN)NC(=O)[C@@H](NC(=O)[C@H](CN)NC(=O)[C@@H](NC(=O)C(CCN)c2ccc(F)cc2)C(C)O)CCNC(=O)[C@H]([C@@H](C)O)NC(=O)[C@H](CCN)NC(=O)[C@H](CCN)NC1=O (single isomer, unassigned; isomer 2) [Example 44]
Result string: 0.125

Values compiled from patent US12146004B2.
